# key: entry, value: CDK7 (20 nM enz.) (kinact/ KI, M^−1*s^−1)
- TESTED SYSTEM: CDK7/cyclinH/MAT1 trimeric complex (Homo sapiens (Human), UniProt P50613)
- Sequence (P50613 whole entry): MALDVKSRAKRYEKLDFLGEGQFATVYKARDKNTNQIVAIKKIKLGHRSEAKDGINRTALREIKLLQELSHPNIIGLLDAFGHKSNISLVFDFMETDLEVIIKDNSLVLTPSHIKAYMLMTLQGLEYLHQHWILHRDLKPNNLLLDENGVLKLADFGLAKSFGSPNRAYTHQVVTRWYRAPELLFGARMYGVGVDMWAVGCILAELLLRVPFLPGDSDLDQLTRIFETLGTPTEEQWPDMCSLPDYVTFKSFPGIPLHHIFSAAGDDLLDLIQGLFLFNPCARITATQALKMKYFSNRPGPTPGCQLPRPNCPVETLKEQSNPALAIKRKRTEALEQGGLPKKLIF
- Sequence (P51946 whole entry partner): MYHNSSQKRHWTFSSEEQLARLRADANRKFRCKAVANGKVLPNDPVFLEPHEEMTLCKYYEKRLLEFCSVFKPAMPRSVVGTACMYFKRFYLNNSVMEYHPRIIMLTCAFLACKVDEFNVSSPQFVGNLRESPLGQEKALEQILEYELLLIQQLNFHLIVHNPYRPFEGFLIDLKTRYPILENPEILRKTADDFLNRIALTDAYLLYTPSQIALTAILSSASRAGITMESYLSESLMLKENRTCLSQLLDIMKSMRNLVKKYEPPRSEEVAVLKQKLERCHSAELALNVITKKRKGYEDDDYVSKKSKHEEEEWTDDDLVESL
- Sequence (P51948 whole entry partner): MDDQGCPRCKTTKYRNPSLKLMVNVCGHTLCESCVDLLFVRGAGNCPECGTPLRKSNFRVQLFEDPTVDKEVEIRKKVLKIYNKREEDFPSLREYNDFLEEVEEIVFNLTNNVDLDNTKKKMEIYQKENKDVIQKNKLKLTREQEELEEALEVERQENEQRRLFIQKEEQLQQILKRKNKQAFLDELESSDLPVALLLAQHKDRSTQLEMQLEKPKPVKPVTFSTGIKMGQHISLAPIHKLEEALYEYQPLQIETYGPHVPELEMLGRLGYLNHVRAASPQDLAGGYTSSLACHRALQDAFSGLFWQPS
- PROCEDURE SUMMARY: In vitro CDK7 assay, potency of irreversible covalent inhibitors (kinact/KI)
- ASSAY SETUP: 20 nM enz.
OBSERVABLE: CDK7 (20 nM enz.) (kinact/ KI, M^−1*s^−1) (M⁻¹ s⁻¹)

{"COMPOUND": "C=CC(=O)N1CC[C@@H](N2CC(c3cc(C)c4c(c3)Nc3ncnc(N5CCS(=O)(=O)CC5)c3[C@H](C)O4)C2)C1 (single isomer, unassigned)", "DISPLAY UNIT": "M⁻¹ s⁻¹", "READOUT VALUE": 179.017}
{"COMPOUND": "C=CC(=O)N1CC(N2CCC(c3cc4c(cn3)O[C@H](C)c3c(ncnc3N3CCOCC3)N4)CC2)C1 (single isomer, unassigned) [compound 60]", "DISPLAY UNIT": "M⁻¹ s⁻¹", "READOUT VALUE": 184.255}
{"COMPOUND": "C=CC(=O)N1CC[C@H](N2CCC(c3cc(C)c4c(c3)Nc3ncnc(N5CCS(=O)(=O)CC5)c3CO4)CC2)C1 (single isomer, unassigned)", "DISPLAY UNIT": "M⁻¹ s⁻¹", "READOUT VALUE": 1377.97}
{"COMPOUND": "C=CC(=O)N1CC[C@H](N2CC(c3cc(C)c4c(c3)Nc3ncnc(N5CCS(=O)(=O)CC5)c3[C@@H](C)O4)C2)C1 (single isomer, unassigned)", "DISPLAY UNIT": "M⁻¹ s⁻¹", "READOUT VALUE": 611.255}
{"COMPOUND": "C=CC(=O)N1CC[C@H](N2CCC(c3cc(C)c4c(c3)Nc3ncnc(N5CCOCC5)c3CO4)CC2)C1", "DISPLAY UNIT": "M⁻¹ s⁻¹", "READOUT VALUE": 256.184}
{"COMPOUND": "C=CC(=O)N1CC[C@H](N2CC(c3cc(C)c4c(c3)Nc3ncnc(N5CCS(=O)(=O)CC5)c3[C@H](C)O4)C2)C1 (single isomer, unassigned)", "DISPLAY UNIT": "M⁻¹ s⁻¹", "READOUT VALUE": 206.471}
{"COMPOUND": "C=CC(=O)N1CCC(N2CC(c3cc(C)c4c(c3)Nc3ncnc(N5CCOCC5)c3CO4)C2)C(F)C1 (centres unmarked)", "DISPLAY UNIT": "M⁻¹ s⁻¹", "READOUT VALUE": 93.6387}
{"COMPOUND": "CC#CC(=O)N1CC(N2CCC(c3cc(C)c4c(c3)Nc3ncnc(N5CCS(=O)(=O)CC5)c3[C@H](C)O4)CC2)C1 (single isomer, unassigned)", "DISPLAY UNIT": "M⁻¹ s⁻¹", "READOUT VALUE": 261.659}
{"COMPOUND": "C=CC(=O)N1CC[C@@H](N2CCC(c3cc(C)c4c(c3)Nc3ncnc(N5CCS(=O)(=O)CC5)c3CO4)CC2)C1 (single isomer, unassigned)", "DISPLAY UNIT": "M⁻¹ s⁻¹", "READOUT VALUE": 1318}
{"COMPOUND": "C=CC(=O)N1CC(N2CCC(c3cc4c(cn3)O[C@H](C)c3c(ncnc3N3CCOCC3)N4)CC2)C1 (single isomer, unassigned) [compound 83]", "DISPLAY UNIT": "M⁻¹ s⁻¹", "READOUT VALUE": 376.933}
{"COMPOUND": "C=CC(=O)N1CC(N2C3CCC2CC(c2ccc4c(c2)Nc2ncnc(N5CCOCC5)c2CO4)C3)C1 (centres unmarked)", "DISPLAY UNIT": "M⁻¹ s⁻¹", "READOUT VALUE": 347}

====

- Test system: RNA polymerase II Serine 5 phosphorylation (CDK7) in A549 cells
pIC50: −log10 of the molar value.
Lab note: compare pIC50 against 7. Equal or greater, write fulfilled. Smaller, write not fulfilled.

{"COMPOUND": "CC#CC(=O)N1CCC(N2CC=C(c3cc(C)c4c(c3)Nc3ncnc(N5CCS(=O)(=O)CC5)c3CO4)CC2)CC1", "CLASS LABEL": "fulfilled"}
{"COMPOUND": "CC#CC(=O)N1CCOC([C@H]2C[C@H](c3cc(C)c4c(c3)Nc3ncnc(N5CCS(=O)(=O)CC5)c3[C@@H](C)O4)C2)C1 (single isomer, unassigned) [compound 186]", "CLASS LABEL": "not fulfilled"}
{"COMPOUND": "CC#CC(=O)N1CC(N2CC(c3cc(C)c4c(c3)Nc3ncnc(N5CCS(=O)(=O)CC5)c3CO4)C2)C1", "CLASS LABEL": "not fulfilled"}
{"COMPOUND": "C=CC(=O)N1CC(N2CCC(c3ccc4c(c3)Nc3ncnc(N5CCOCC5)c3[C@H](C)O4)CC2)C1 (single isomer, unassigned)", "CLASS LABEL": "not fulfilled"}

====

- TESTED SYSTEM: CDK7/cyclinH/MAT1 trimeric complex (Homo sapiens (Human))
- PROCEDURE SUMMARY: In vitro CDK7 assay, potency of irreversible covalent inhibitors (kinact/KI)
- ASSAY SETUP: CDK7 (KI(μM)), Table B
# key: entry, value: log10(Ki)
OBSERVABLE: log10(Ki) (log10 of the value in µM)

{"MOLECULE": "C=CC(=O)N1CC(N2CC[C@H](c3ccc4c(c3)Nc3ncnc(N5CCOCC5)c3CO4)C2)C1 (single isomer, unassigned) [compound 9]", "READOUT VALUE": -0.14}
{"MOLECULE": "C=CC(=O)N1CC(N2CCN(c3ccc4c(c3)Nc3ncnc(N5CCOCC5)c3CO4)CC2)C1 [compound 6]", "READOUT VALUE": 0.44}
{"MOLECULE": "C=CC(=O)N1CC(N2CCC(c3ccc4c(c3)Nc3ncnc(-c5ccc(=O)n(C)c5)c3CO4)CC2)C1 [compound 8]", "READOUT VALUE": -0.60}
{"MOLECULE": "C=CC(=O)N1CC(N2CCC(c3ccc4c(c3)Nc3ncnc(C5CCOCC5)c3CO4)CC2)C1 [compound 38]", "READOUT VALUE": -0.60}
{"MOLECULE": "C=CC(=O)N1CCC(N2CCC(c3ccc4c(c3)Nc3ncnc(N5CCOCC5)c3CO4)CC2)CC1 [compound 2]", "READOUT VALUE": -0.44}
{"MOLECULE": "C=CC(=O)N1CC(C2CCN(c3ccc4c(c3)Nc3ncnc(N5CCOCC5)c3CO4)CC2)C1 [compound 7]", "READOUT VALUE": 0.25}
{"MOLECULE": "C=CC(=O)NCCN1CCC(c2ccc3c(c2)Nc2ncnc(N4CCOCC4)c2CO3)CC1 [compound 3]", "READOUT VALUE": 0.01}

====

# key: entry, value: Ki
- TESTED SYSTEM: CDK7/cyclinH/MAT1 trimeric complex (Homo sapiens (Human), UniProt P50613)
- PROCEDURE SUMMARY: In vitro CDK7 assay, potency of irreversible covalent inhibitors (kinact/KI)
- ASSAY SETUP: CDK7 (20 nM enz.) (KI, μM), 20 nM enz.

{"MOLECULE": "C=CC(=O)N1CC(N2CCC(c3cc(C)c4c(c3)Nc3ncnc(-c5cn(C)nc5C)c3CO4)CC2)C1 [compound 81]", "Ki (µM)": 0.31}
{"MOLECULE": "C=CC(=O)N1CCC(N2CCC(c3ccc4c(c3)Nc3ncnc(N5CCOCC5)c3CO4)CC2)C(F)C1 (stereo not shown) [compound 15]", "Ki (µM)": 0.632}
{"MOLECULE": "C=CC(=O)N1CC(N2CCC(c3cc4c(cn3)O[C@H](C)c3c(ncnc3N3CCOCC3)N4)CC2)C1 (single isomer, unassigned) [compound 83]", "Ki (µM)": 0.059}
{"MOLECULE": "C=CC(=O)N1CC(N2C3CCC2CC(c2ccc4c(c2)Nc2ncnc(N5CCOCC5)c2CO4)C3)C1 (stereo not shown) [compound 40]", "Ki (µM)": 0.16}
{"MOLECULE": "C=CC(=O)N1CC[C@@H](N2CC(c3cc(F)c4c(c3)Nc3ncnc(N5CCOCC5)c3CO4)C2)C1 (single isomer, unassigned) [compound 55]", "Ki (µM)": 1.04}
{"MOLECULE": "C=CC(=O)N1CCN(C2CCN(c3cc(C)c4c(c3)Nc3ncnc(N5CCS(=O)(=O)CC5)c3CO4)CC2)CC1 [compound 91]", "Ki (µM)": 0.0406}
{"MOLECULE": "C=CC(=O)N1CC(N2CC(c3cc4c(c(C)n3)OCc3c(ncnc3N3CCS(=O)(=O)CC3)N4)C2)C1 [compound 64]", "Ki (µM)": 0.427}

====

- Test system: RNA polymerase II Serine 5 phosphorylation in A549 cells overexpressing CDK7 mutant (C312S)
- PROCEDURE SUMMARY: Imaging-based cellular RNA PolII Ser5 phosphorylation assay in A549 cells overexpressing CDK7-mutant (C312S)
- Format: cell-based, human
- ASSAY SETUP: Homo sapiens, A549, A549 cells overexpressing CDK7 mutant (C312S); read-out: CDK7_ A549 mutant hCDK7(pIC50) (converted)

{"COMPOUND": "CC#CC(=O)N1CC[C@@](C)(N2CCC(c3cc(C)c4c(c3)Nc3ncnc(N5CCS(=O)(=O)CC5)c3[C@@H](C)O4)CC2)C1 (single isomer, unassigned)", "IC50": "4.57 µM"}
{"COMPOUND": "[2H][C@]1(N2CC(c3cc(C)c4c(c3)Nc3ncnc(N5CCS(=O)(=O)CC5)c3[C@@H](C)O4)C2)CCN(C(=O)C#CC)C1 (single isomer, unassigned)", "IC50": "> 10 µM"}
{"COMPOUND": "C=CC(=O)N1CC[C@@H](N2CC(c3cc(C)c4c(c3)Nc3ncnc(N5CCS(=O)(=O)CC5)c3[C@@H](C)O4)C2)C1 (single isomer, unassigned)", "IC50": "> 10 µM"}
{"COMPOUND": "C=CC(=O)N1CC(N2CCC(c3cc(F)c4c(c3)Nc3ncnc(-c5cnn(C)c5)c3[C@@H](C)O4)CC2)C1 (single isomer, unassigned)", "IC50": "> 10 µM"}
{"COMPOUND": "C=CC(=O)N1CC(N2CCC(c3cc(C)c4c(c3)Nc3ncnc(N5CCCC(C#N)C5)c3CO4)CC2)C1 (centres unmarked)", "IC50": "> 10 µM"}
